system: TZM-bl cells; test: Cytotoxicity; type: cell-based; conditions: read-out: TZMb-l CC50; TZM-bl cells, 3 days, MTS; mean ± SD, n=3
Lab note: anything with CC50 below 100 µM is marked yes; values at 100 µM or higher are marked no.

{"compound": "Cc1nc([C@@H](CN)NC(=O)c2ccc(-c3ccc(F)c(F)c3)[nH]2)sc1CO (single isomer, unassigned) [NBD-14113, reference compound]", "class": "yes"}
{"compound": "Cc1nc(C(NC(=O)c2ccc(-c3ccc4c(c3)OCO4)[nH]2)C(C)(C)N)sc1CO (stereo not shown)", "class": "yes"}
{"compound": "NCC(NC(=O)c1ccc(-c2ccc3nsnc3c2)[nH]1)c1ncc(CO)s1 (stereo not shown)", "class": "yes"}
{"compound": "CNCC(NC(=O)c1ccc(-c2ccc3c(c2)OCO3)[nH]1)c1ncc(CO)s1 (stereo not shown)", "class": "no"}
{"compound": "CC(C)(N)C(NC(=O)c1ccc(-c2ccc3c(c2)OCO3)[nH]1)c1ncc(CO)s1 (stereo not shown)", "class": "yes"}
{"compound": "NCC(NC(=O)c1ccc(-c2ccc3c(c2)OCO3)[nH]1)c1ncc(CO)s1 (stereo not shown)", "class": "no"}
{"compound": "Cc1nc(C(CN)NC(=O)c2ccc(-c3ccc4c(c3)OCO4)[nH]2)sc1CO (stereo not shown)", "class": "no"}

====

Listing: pIC50 of selected compounds
tested on: HIV-1 Env pseudovirus BG505.W6M.ENV.C2; experiment: Single-cycle assay, Paired Infant and Maternal Env clones
pIC50: −log10 of the molar value.

{"compound": "NCC(NC(=O)c1ccc(-c2ccc3c(c2)OCO3)[nH]1)c1ncc(CO)s1 (stereo not drawn)", "pIC50": 5.36}
{"compound": "Cc1nc(C(CN)NC(=O)c2ccc(-c3ccc4c(c3)OCO4)[nH]2)sc1CO (stereo not drawn)", "pIC50": 5.32}
{"compound": "CNCC(NC(=O)c1ccc(-c2ccc3c(c2)OCO3)[nH]1)c1nc(CO)cs1 (stereo not drawn)", "pIC50": 5.33}

====

system: HIV-1 Env pseudovirus PVO, clone 4; assay: Single-cycle assay TZM-bl, Env pseudovirus panel; details: TZM-bl
pIC50: −log10 of the molar value.
readoutName: pIC50

{"compound": "Cc1nc(C(CN)NC(=O)c2ccc(-c3ccc4c(c3)OCO4)[nH]2)sc1CO (stereo not drawn)", "measuredValue": 5.85}
{"compound": "NCC(NC(=O)c1ccc(-c2ccc3c(c2)OCO3)[nH]1)c1ncc(CO)s1 (stereo not drawn)", "measuredValue": 5.72}
{"compound": "CNCC(NC(=O)c1ccc(-c2ccc3c(c2)OCO3)[nH]1)c1nc(CO)cs1 (stereo not drawn)", "measuredValue": 5.37}

====

Catalogue of molecules with associated IC50
system: HIV-1 Env pseudovirus 1054.TC4.1499; assay: Single-cycle assay TZM-bl, Env pseudovirus panel; conditions: TZM-bl
readoutName: IC50 (µM)

{"molecule": "NCC(NC(=O)c1ccc(-c2ccc3c(c2)OCO3)[nH]1)c1ncc(CO)s1 (stereo not drawn)", "resultUnits": "µM", "measuredValue": 2.4}
{"molecule": "CNCC(NC(=O)c1ccc(-c2ccc3c(c2)OCO3)[nH]1)c1nc(CO)cs1 (stereo not drawn)", "resultUnits": "µM", "measuredValue": 4.1}
{"molecule": "Cc1nc(C(CN)NC(=O)c2ccc(-c3ccc4c(c3)OCO4)[nH]2)sc1CO (stereo not drawn)", "resultUnits": "µM", "measuredValue": 4.2}
